test_system: pendrin (Homo sapiens, UniProt O43511)
method_summary: YFP (EYFP-HIF) fluorescence quenching assay of pendrin-mediated Cl− exchange (SCN−, I−, NO3−) in FRT cells; high-throughput screen
Assay type: cell-based
Design: expressed in transfected cells
settings: Cl−/SCN− exchange; read-out: IC50 for Cl−/SCN− exchange
Protocol: Fischer rat thyroid (FRT) cells were cultured in Kaign's modified Ham's F12 medium supplemented with 10% FBS, 2 mM L-glutamine, 100 U/ml penicillin, […], […] myo-inositol and 45 mg/ml ascorbic acid. […] High-throughput screening was performed using a semi-automated screening platform (Beckman, Fullerton, Calif.) configured as described. […] In some experiments Cl^− exchange for I^− or NO3^− was measured similarly using NaI and NaNO3-substituted PBS. […]
property_name: IC50

Report IC50 for "Cn1nc(COc2cccc(F)c2)c2c1CCN(C(=O)Nc1ccc(Cl)cc1)C2" please. ~9 µM

----------
Consider the following molecules and their measured inhibition at 25 µM readings.
test_system: pendrin (Homo sapiens)
method_summary: YFP (EYFP-HIF) fluorescence quenching assay of pendrin-mediated Cl− exchange (SCN−, I−, NO3−) in FRT cells; high-throughput screen
Assay type: cell-based
Design: expressed in transfected cells
settings: FRT, 25 μM; read-out: Inh. (%), percentage inhibition of human pendrin
Report as a plain number; the unit % is understood.

// solved cases for inhibition at 25 µM follow
molecule | inhibition at 25 µM [%]
Cn1nc(COc2ccccc2)c2c1CCN(C(=O)Nc1ccc(Cl)cc1)C2 | 72
CCc1ccc(NC(=O)N2CCc3c(c(COc4ccccc4)nn3C)C2)cc1 | 54
Cc1ccc(NC(=O)N2CCc3c(c(COCc4ccc(Cl)cc4)nn3C)C2)cc1C | 49
Cc1n[nH]c(-c2cc(S(=O)(=O)NC3CCCc4ccccc43)c(C)s2)c1C (stereo not drawn) | 83
CCc1ccc(NC(=O)N2CCc3c(c(COCc4ccc(F)cc4Cl)nn3C)C2)cc1 | 49

Report inhibition at 25 µM for "Cc1ccc(NC(=O)N2CCc3c(c(COc4ccccc4)nn3C)C2)cc1C" please. 64

Report inhibition at 25 µM for "Cc1ccc(NC(=O)N2CCc3c(c(COc4ccccc4)nn3C)C2)cc1" please. 61

Report inhibition at 25 µM for "CSc1ccc(NC(=O)N2CCc3c(c(COc4ccccc4)nn3C)C2)cc1" please. 77

Report inhibition at 25 µM for "Cn1nc(COc2ccc(F)cc2)c2c1CCN(C(=O)Nc1ccc(F)c(Cl)c1)C2" please. 54

----------
test_system: pendrin (Homo sapiens, UniProt O43511)
Sequence (O43511 1-780): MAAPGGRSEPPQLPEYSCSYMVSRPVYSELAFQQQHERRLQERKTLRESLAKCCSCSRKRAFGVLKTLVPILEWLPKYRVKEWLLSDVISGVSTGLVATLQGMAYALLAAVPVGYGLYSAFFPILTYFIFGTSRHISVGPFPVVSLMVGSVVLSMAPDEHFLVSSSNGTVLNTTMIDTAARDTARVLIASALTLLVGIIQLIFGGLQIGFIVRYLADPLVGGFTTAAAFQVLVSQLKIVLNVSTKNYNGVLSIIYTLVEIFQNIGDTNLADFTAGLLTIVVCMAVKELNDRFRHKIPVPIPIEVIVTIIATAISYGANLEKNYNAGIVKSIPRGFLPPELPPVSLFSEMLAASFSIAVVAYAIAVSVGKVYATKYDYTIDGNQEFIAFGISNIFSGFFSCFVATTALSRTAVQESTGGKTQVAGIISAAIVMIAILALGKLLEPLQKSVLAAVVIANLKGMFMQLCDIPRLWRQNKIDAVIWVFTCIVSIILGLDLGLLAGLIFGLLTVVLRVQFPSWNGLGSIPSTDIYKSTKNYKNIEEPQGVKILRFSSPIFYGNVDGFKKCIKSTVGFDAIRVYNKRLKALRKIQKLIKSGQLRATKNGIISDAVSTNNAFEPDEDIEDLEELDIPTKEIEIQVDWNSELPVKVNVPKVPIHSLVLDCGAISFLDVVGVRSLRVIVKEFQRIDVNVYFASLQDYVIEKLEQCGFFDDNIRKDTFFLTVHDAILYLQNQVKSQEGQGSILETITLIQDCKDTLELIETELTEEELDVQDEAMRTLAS
method_summary: YFP (EYFP-HIF) fluorescence quenching assay of pendrin-mediated Cl− exchange (SCN−, I−, NO3−) in FRT cells; high-throughput screen
Assay type: cell-based
Set-up: expressed in transfected cells
settings: Cl−/NO3− exchange; read-out: IC50 for Cl−/NO3− exchange
property_name: IC50

Report IC50 for "Cn1nc(COc2cccc(F)c2)c2c1CCN(C(=O)Nc1ccc(Cl)cc1)C2" please. ~5 µM

----------
test_system: murine pendrin (Mus musculus)
Sequence (Q9R155 1-780): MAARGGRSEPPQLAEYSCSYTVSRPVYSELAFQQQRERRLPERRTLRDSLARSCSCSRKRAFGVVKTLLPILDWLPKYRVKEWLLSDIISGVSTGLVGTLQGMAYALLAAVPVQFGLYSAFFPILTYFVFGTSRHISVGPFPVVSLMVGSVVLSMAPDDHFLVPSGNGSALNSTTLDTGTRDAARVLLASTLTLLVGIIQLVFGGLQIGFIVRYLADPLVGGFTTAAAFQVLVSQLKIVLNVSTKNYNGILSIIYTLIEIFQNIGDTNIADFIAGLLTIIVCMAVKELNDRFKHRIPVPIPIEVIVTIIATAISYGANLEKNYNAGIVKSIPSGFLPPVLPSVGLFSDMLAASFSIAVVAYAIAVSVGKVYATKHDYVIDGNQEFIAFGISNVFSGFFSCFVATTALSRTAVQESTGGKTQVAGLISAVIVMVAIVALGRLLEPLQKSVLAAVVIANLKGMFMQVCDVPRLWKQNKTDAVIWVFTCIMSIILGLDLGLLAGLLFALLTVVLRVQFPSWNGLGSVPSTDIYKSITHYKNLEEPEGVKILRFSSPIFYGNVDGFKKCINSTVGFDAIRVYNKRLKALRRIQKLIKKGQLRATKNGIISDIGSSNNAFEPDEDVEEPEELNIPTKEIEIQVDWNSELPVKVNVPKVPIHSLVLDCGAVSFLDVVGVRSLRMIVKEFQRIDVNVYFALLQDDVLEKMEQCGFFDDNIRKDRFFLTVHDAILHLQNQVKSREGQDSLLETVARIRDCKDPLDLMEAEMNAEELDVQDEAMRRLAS
method_summary: BCECF intracellular pH assay of Cl−/HCO3− exchange in FRT cells expressing murine pendrin
pIC50: −log10 of the molar value.
property_name: pIC50

Provide the documented pIC50 with murine pendrin (Mus musculus) as the system for Cc1n[nH]c(-c2cc(S(=O)(=O)NC3CCCc4ccccc43)c(C)s2)c1C (stereo not shown) ~5.92

----------
test_system: UniProt O43511
method_summary: YFP (EYFP-HIF) fluorescence quenching assay of pendrin-mediated Cl− exchange (SCN−, I−, NO3−) in FRT cells; high-throughput screen
Assay type: cell-based
Design: expressed in transfected cells
settings: Cl−/I− exchange; read-out: IC50 for Cl−/I− exchange
pIC50: −log10 of the molar value.
property_name: pIC50

Report pIC50 for "Cn1nc(COc2cccc(F)c2)c2c1CCN(C(=O)Nc1ccc(Cl)cc1)C2" please. ~5.10

----------
test_system: pendrin (Homo sapiens, UniProt O43511)
Sequence (O43511 1-780): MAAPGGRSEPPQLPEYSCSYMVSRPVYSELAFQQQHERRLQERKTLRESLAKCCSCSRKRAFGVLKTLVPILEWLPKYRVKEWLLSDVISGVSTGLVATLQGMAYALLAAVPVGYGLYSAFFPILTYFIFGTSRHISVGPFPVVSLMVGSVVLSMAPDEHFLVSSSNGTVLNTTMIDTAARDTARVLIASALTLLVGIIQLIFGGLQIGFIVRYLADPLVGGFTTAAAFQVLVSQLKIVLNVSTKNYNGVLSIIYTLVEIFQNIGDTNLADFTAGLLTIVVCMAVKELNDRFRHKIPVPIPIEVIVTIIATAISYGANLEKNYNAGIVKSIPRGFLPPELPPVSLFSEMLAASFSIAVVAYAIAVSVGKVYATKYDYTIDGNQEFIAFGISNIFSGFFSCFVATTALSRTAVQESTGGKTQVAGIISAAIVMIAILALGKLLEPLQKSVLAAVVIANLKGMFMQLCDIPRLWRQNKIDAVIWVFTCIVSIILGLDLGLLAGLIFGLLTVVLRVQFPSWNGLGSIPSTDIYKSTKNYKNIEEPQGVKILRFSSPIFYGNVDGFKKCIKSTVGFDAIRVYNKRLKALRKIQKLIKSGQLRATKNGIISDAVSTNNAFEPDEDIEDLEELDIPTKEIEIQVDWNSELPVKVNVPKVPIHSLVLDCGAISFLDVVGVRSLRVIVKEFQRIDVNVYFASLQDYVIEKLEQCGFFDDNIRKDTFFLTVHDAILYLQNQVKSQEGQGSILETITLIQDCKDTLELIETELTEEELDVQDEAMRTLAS
method_summary: BCECF cytoplasmic pH assay of pendrin-mediated Cl−/HCO3− exchange in pendrin-expressing FRT cells
Assay type: cell-based
Parameters: expressed in transfected cells
settings: Cl−/HCO3− exchange; read-out: concentration giving fifty percent inhibition of Cl−/HCO3− exchange
pIC50: −log10 of the molar value.
property_name: pIC50

Report pIC50 for "Cn1nc(COc2cccc(F)c2)c2c1CCN(C(=O)Nc1ccc(Cl)cc1)C2" please. ~5.60
